Measured values drawn from patent US20160297884A1 for this set.

What kon was measured for each of the following?
targetOrTestSystem: T1, cynomolgus monkey BCMA (cynomolgus monkey, UniProt A0A2K5UD97 1-53)
T1 construct: Soluble analyte in SPR; construct not described; also called cyBCMA; Cyno BCMA
T1 sequence (A0A2K5UD97 entry or part of it): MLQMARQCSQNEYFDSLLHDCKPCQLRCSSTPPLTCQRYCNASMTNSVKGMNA
methodNotes: SPR, IgG immobilised, 25 C
All answers are understood in M⁻¹ s⁻¹, so give the number only.

Note to self: kon recorded for L1.GDF/L3.NY/H3.AL (antibody, V domains shown, IgG) VH: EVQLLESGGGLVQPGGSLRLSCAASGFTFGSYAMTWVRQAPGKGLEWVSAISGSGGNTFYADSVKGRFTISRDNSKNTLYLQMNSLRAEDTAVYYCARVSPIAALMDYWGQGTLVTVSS VL: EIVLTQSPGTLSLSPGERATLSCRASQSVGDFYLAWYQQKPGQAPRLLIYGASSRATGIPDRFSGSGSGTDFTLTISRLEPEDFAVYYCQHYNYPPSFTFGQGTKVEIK was 900000

Query L1.GDF/L3.KW/H3.AL (antibody, V domains shown, IgG) VH: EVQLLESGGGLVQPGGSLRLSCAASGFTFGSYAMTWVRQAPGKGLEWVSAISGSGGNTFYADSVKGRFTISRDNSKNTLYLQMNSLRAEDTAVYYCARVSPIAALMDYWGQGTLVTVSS VL: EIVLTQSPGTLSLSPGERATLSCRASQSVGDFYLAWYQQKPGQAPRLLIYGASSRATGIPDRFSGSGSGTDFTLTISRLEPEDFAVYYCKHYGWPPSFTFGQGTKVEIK yields kon of 318000

The binder L1.LGF/L3.KW/P6E01 (antibody, V domains shown, IgG) VH: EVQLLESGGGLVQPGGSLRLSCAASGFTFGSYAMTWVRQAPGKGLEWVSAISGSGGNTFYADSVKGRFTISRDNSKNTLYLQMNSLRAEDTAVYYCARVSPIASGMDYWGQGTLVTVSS VL: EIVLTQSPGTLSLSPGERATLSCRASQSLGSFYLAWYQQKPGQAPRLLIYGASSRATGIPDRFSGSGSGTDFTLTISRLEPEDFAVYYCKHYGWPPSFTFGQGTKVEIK showed kon equal to 455000

Lab note: L1.LGF/L3.KW/H3.AP (antibody, V domains shown, IgG) VH: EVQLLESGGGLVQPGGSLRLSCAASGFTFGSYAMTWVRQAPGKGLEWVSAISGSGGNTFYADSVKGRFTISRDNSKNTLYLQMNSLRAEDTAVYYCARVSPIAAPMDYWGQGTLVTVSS VL: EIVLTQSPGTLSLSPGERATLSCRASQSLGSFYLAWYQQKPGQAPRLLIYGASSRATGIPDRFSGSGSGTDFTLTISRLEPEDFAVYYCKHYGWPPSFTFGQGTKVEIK gave kon of 554000

kon measured on L1.GDF/L3.KW/H3.AQ (antibody, V domains shown, IgG) VH: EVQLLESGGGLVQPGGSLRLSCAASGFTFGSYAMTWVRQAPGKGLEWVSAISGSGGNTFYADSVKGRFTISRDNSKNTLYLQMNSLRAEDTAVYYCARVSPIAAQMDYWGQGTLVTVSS VL: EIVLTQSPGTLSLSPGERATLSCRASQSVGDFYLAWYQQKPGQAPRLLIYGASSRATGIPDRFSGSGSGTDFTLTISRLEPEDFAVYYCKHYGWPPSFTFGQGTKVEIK = 802000

Quick note, kon for L1.LGF/L3.NY/H3.AL (antibody, V domains shown, IgG) VH: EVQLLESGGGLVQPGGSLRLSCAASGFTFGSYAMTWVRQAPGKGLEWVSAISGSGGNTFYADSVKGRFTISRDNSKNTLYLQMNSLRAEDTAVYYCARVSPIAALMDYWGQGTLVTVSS VL: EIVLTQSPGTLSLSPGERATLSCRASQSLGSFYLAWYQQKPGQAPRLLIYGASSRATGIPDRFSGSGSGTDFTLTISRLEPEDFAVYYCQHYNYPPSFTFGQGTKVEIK landed at 635000

kon for L1.GDF/L3.NY/H3.AQ (antibody, V domains shown, IgG) VH: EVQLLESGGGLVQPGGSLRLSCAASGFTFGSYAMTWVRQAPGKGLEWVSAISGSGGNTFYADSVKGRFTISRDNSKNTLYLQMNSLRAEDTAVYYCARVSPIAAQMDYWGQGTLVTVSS VL: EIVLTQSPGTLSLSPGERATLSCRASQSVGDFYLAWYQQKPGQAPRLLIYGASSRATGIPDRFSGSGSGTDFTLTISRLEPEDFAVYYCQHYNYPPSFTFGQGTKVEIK is 1.18e+06

Quick note, kon for L1.GDF/L3.KW/H3.AP (antibody, V domains shown, IgG) VH: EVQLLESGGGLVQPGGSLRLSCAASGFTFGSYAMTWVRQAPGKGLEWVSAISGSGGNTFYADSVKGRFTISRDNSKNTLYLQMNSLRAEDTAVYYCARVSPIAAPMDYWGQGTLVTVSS VL: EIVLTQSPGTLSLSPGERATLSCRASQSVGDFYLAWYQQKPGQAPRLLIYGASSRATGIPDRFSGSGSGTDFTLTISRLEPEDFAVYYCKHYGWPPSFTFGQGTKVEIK landed at 814000

So for L1.GDF/L3.NY/H3.AP (antibody, V domains shown, IgG) VH: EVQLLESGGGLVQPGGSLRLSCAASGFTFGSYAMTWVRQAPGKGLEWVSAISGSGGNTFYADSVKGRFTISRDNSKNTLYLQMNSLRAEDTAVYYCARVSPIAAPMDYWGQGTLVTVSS VL: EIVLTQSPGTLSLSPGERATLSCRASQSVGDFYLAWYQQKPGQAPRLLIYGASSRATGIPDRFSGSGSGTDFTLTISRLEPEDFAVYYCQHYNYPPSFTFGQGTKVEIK , the logged kon turned out to be 1.36e+06

L1.LGF/L3.NY/H3.AP (antibody, V domains shown, IgG) VH: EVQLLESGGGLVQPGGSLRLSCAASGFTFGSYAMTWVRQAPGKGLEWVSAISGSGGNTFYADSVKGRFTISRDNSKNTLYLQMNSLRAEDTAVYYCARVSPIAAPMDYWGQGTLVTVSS VL: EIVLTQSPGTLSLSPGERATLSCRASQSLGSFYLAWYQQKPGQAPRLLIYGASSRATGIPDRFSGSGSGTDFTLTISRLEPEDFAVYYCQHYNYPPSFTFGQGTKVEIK has a reported kon of 830000

Entry L1.LGF/L3.NY/P6E01 (antibody, V domains shown, IgG) VH: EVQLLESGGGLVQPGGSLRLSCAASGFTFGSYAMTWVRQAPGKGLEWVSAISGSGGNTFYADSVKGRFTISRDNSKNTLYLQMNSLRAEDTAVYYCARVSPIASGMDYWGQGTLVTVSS VL: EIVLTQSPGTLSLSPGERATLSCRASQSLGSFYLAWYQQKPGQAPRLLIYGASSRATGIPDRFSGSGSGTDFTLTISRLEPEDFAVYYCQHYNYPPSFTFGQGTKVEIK — recorded kon = 920000
